# System: MS2 coat protein
# experiment-summary: apparent Kd, MS2 coat protein; higher = weaker binding; RNA-MaP array; FMN 200 µM where present
# measurement-setup: designed as: OFF switch for flavin mononucleotide; no ligand
reported-endpoint: apparent Kd (nM)
All answers are understood in nM, so give the number only.

Give me measured apparent Kd, please, for this sequence: CUCGUGUAAGGAUAUGCGGGCGGGCGCGUUUGUGUUUGUUUGUAGAAGGUACAUGAGGAUCACCCAUGUACUGG 25.5

Determine from records and report apparent Kd for UUUACUUACGAAGGAUAUGGUUACAUGAGGAUCACCCAUGUAUGUAUAUUGAUCUAGUAUUUUAACCAGAAGGUCGUGAUUUUU 34.4

Recall and state the measured apparent Kd for UGAGCUUCAGGAUAUAUAUGGCGACCGUGAGGUCGAAGGUUACAUGAGGAUCACCCAUGUAGAAGGGAAGUUCU . 34.5

Return value of apparent Kd for input AUCAGCUCGUCAGGAUAUACGUCACUGCUUCGGCAGUGUAUUAAGAUCACAUGAGGAUCACCCAUGUAGAAGGGACGAGCUGAU , no commentary. 21.7

Give recorded apparent Kd. UGAGUGCGUGUUAGGAUAUGGUUUGGUGUUUCGGGCUAGAAGGGACAUGAGGAUCACCCAUGUAAUUGGCGGGU 253

Consider the sequence GGUUGGCGAGGAUAUACAUGAGGAUCACCCAUGUGGUCCUGCGGUGGUCUCGCCCUUUGUAGAAGGCGCGGGUC and give its recorded apparent Kd. 35.7

Answer with the recorded apparent Kd of CGAUCGGAAGGAUAUACACCUCACGUCAAACGGACAACCGGACAUGAGGAUCACCCAUGUAGAAGGUCCAAAAU only. 72.6

These data points were gathered from the EternaBench riboswitch data.
